Tested on: human apolipoprotein B mRNA
Experiment Description: Inhibition of human apolipoprotein B mRNA levels in HepG2 cells, quantitative real-time PCR
Assay type: cell-based
Condition Details: HepG2 cells; human apolipoprotein B mRNA; oligonucleotides targeting genomic sequence SEQ ID NO 334; averages from two experiments
In the oligonucleotide strings, read from the 5' end, every base follows the letter of its sugar. An asterisk marks phosphorothioate; unmarked linkages are phosphodiester. Other units and linkages are bracketed, terminal groups are in braces. A string of capitals states the bases alone. e = 2'-O-(2-methoxyethyl) (MOE); [5mC] = 5-methylcytosine; d = 2'-deoxy (DNA)
Collected % INHIB values appear next to each entry.
Give just the numeric value; % need not be written.

Observe how each entry below is paired with its result.
[
  {
    "Substance": "301195 (antisense eG*eA*eA*eT*eT*dG*dA*dG*dA*d[5mC]*dA*dA*d[5mC]*dT*dT*eG*eA*eT*eT*eT) [compound 301195]",
    "Property Measured": "% INHIB",
    "Obs Value": 26
  },
  {
    "Substance": "301074 (eG*eA*eG*e[5mC]*eT*d[5mC]*dA*dT*dA*d[5mC]*d[5mC]*dT*dG*dT*d[5mC]*e[5mC]*e[5mC]*eA*eG*eA; antisense) [compound 301074]",
    "Property Measured": "% INHIB",
    "Obs Value": 75
  }
]

Attention now turns to another entry.
Enquiry: Looking for the measured % INHIB of 301111 (antisense eT*eG*eA*eA*eG*dG*dG*dT*dA*dG*dA*dG*dA*dA*dA*eT*e[5mC]*eA*eT*eA) [compound 301111] , can you help?
Return: 9

src = patent US7803930B2
